tested target: Human recombinant PDE2A (hPDE2A) (Homo sapiens)
Construct: His tag (inferred from metal chelate purification); made in house; host or cells: Sf9 insect cells (baculovirus)
Sequence (O00408 whole entry): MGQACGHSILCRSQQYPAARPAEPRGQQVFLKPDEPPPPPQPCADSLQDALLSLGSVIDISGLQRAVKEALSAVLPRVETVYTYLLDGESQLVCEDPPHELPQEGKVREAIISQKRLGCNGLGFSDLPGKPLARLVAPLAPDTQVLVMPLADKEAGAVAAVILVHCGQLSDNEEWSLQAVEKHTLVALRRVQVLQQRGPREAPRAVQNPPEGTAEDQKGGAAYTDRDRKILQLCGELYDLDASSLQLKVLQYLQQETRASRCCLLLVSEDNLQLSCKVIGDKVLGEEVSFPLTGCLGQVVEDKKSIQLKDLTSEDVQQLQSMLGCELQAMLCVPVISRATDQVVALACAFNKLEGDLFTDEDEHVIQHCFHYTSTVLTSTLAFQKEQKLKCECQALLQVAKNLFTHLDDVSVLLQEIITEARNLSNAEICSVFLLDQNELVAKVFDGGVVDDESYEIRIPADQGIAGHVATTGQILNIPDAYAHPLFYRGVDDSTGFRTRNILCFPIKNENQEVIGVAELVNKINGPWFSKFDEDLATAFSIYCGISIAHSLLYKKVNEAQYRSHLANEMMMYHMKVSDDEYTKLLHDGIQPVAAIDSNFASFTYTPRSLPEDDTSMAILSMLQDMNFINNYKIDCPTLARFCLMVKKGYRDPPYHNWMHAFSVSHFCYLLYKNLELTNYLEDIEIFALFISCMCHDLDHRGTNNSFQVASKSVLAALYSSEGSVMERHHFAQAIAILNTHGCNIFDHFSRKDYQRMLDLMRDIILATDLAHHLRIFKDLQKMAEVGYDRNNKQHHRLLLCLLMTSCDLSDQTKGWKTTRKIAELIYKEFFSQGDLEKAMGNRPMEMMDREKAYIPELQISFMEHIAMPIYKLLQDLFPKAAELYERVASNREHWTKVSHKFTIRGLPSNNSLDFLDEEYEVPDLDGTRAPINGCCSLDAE
protocol text: In vitro assay PDE2A (SPA, 3H-cGMP hydrolysis)
Format: biochemical
recorded conditions: read-out: hPDE2A pIC50 (converted)
recorded endpoint: IC50 (nM)

Below are worked cases with known answers.
COc1c(C)cc(C(=O)N2CC[C@@H](C)[C@](F)(c3cc(C(F)F)nc4ncnn34)C2)cc1C	30.2
COc1cc(C(=O)N2CC[C@@H](C)[C@H](c3cc(C(F)F)nc4ncnn34)C2)ccc1C1CC1	1.66
COc1ccc(C(C)(C)C)cc1C(=O)N1CC[C@@H](C)[C@H](c2cc(C(F)F)nc3ncnn23)C1	93.3
Cc1nc2cc(C(=O)N3CC[C@@H](C)[C@H](c4cc(C(F)F)nc5ncnn45)C3)ccc2o1	8.51
Cc1ccc(C(=O)N2CC[C@@H](C)[C@H](c3cc(C(F)F)nc4ncnn34)C2)nc1C	6.46
COc1cc(C(=O)N2CC[C@@H](C)[C@H](c3cc(C(F)F)nc4ncnn34)C2)cc(C2CC2)n1	1

a. Cc1cc(C(=O)N2CC[C@@H](C)[C@@](F)(c3cc(C(F)F)nc4ncnn34)C2)cc(C)n1
b. Cc1cc([C@@H]2CN(C(=O)c3cc(Cl)ncc3C)CC[C@H]2C)n2ncnc2n1
c. C[C@@H]1CCN(C(=O)c2cc3ccccc3o2)C[C@H]1c1cc(C(F)F)nc2ncnn12
d. C[C@@H]1CCN(C(=O)c2ccc3ncoc3c2)C[C@H]1c1cc(C(F)F)nc2ncnn12
e. C[C@@H]1CCN(C(=O)c2cccc3ncoc23)C[C@H]1c1cc(C(F)F)nc2ncnn12
rank_up(items): orders items by reported IC50 in ascending numerical order. Quick reminder: the answer is the labels in the order asked.
c, d, b, e, a
(c: 0.407 nM, d: 0.813 nM, b: 4.68 nM, e: 9.12 nM, a: 7080 nM)

====

tested target: Human recombinant PDE10A (hPDE10A) (Homo sapiens, UniProt Q9Y233)
Construct: His tag (inferred from metal chelate purification); made in house; host or cells: Sf9 insect cells (baculovirus)
Sequence (Q9Y233 267-1055): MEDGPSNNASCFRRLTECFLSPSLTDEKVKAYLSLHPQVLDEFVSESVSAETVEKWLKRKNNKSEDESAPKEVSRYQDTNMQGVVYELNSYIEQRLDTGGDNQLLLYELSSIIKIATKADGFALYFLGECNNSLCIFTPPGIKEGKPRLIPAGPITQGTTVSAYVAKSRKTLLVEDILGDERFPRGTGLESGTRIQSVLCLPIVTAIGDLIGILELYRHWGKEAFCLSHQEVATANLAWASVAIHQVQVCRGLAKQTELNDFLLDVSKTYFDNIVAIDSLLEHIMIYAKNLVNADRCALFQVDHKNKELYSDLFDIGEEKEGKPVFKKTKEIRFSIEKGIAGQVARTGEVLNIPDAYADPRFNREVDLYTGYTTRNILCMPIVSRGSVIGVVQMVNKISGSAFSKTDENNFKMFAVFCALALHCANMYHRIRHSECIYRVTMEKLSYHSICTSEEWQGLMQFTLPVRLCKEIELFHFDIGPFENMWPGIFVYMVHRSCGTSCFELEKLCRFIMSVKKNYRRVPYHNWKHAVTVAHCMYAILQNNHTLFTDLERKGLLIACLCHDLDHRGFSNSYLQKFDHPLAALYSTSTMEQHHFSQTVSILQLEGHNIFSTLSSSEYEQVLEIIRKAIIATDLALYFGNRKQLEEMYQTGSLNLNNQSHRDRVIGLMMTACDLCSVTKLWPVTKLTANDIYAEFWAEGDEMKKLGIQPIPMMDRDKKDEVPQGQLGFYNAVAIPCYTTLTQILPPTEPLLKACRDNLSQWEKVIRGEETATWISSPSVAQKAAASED
protocol text: In vitro assay PDE10A, human clone (SPA, 3H-cAMP hydrolysis)
Format: biochemical
recorded conditions: human clone (h), default; read-out: hPDE10A2 Emax
recorded endpoint: Emax (%)

C[C@@H]1CCN(C(=O)c2cc(Cl)nc(Cl)c2F)C[C@H]1c1cc(C(F)F)nc2ncnn12	94
Cc1cc([C@H]2CN(C(=O)c3cc(C)c(Cl)c(C)c3)CC[C@@H]2C)n2ncnc2n1	85
C[C@@H]1CCN(C(=O)c2c(Cl)cncc2Cl)C[C@H]1c1cc(C(F)F)nc2ncnn12	39

A. Cc1coc2ccc(C(=O)N3CC[C@@H](C)[C@H](c4cc(C(F)F)nc5ncnn45)C3)cc12
B. COc1c(C)cc(C(=O)N2CC[C@@H](C)[C@@](F)(c3cc(C(F)F)nc4ncnn34)C2)cc1C
Would you let me know which has the greater Emax value, A or B ? Please indicate the selected item by its label.
A

====

tested target: Human recombinant PDE2A (hPDE2A) (Homo sapiens)
Construct: His tag (inferred from metal chelate purification); made in house; host or cells: Sf9 insect cells (baculovirus)
protocol text: In vitro assay PDE2A (SPA, 3H-cGMP hydrolysis)
Type: biochemical
recorded conditions: human recombinant PDE2A; read-out: hPDE2A Emax
recorded endpoint: Emax (%)

COc1cc(C(=O)N2CC[C@@H](C)[C@H](c3cc(C(F)F)nc4ncnn34)C2)cc(Cl)n1	100
Cc1nn(C)cc1C(=O)N1CC[C@@H](C)[C@H](c2cc(C(F)F)nc3ncnn23)C1	98
COc1ncc(C(=O)N2CC[C@@H](C)[C@H](c3cc(C(F)F)nc4ncnn34)C2)cc1C1CC1	101
C[C@@H]1CCN(C(=O)c2ccn(C)c2)C[C@H]1c1cc(C(F)F)nc2ncnn12	99
C[C@@H]1CCN(C(=O)c2ccc(Cl)c(OC(F)F)c2)C[C@H]1c1cc(C(F)F)nc2ncnn12	99
C[C@@H]1CCN(C(=O)c2cnc(O)c(Cl)c2)C[C@H]1c1cc(C(F)F)nc2ncnn12	101
C[C@@H]1CCN(C(=O)c2cncn2C)C[C@H]1c1cc(C(F)F)nc2ncnn12	100
Cc1csc(C(=O)N2CC[C@@H](C)[C@H](c3cc(C(F)F)nc4ncnn34)C2)c1	101
C[C@@H]1CCN(C(=O)c2cccnc2N)C[C@H]1c1cc(C(F)F)nc2ncnn12	100
C[C@@H]1CCN(C(=O)c2ccn(C)n2)C[C@H]1c1cc(C(F)F)nc2ncnn12	99
C[C@@H]1CCN(C(=O)c2ccc3ncsc3c2)C[C@@]1(F)c1cc(C(F)F)nc2ncnn12	99
Cc1cc([C@@H]2CN(C(=O)c3cccc4nc(C)oc34)CC[C@H]2C)n2ncnc2n1	101
C[C@@H]1CCN(C(=O)c2cc(Cl)nc(Cl)c2F)C[C@H]1c1cc(C(F)F)nc2ncnn12	98
COc1nc(N)ncc1C(=O)N1CC[C@@H](C)[C@H](c2cc(C(F)F)nc3ncnn23)C1	100
Cc1nc(C(=O)N2CC[C@@H](C)[C@H](c3cc(C(F)F)nc4ncnn34)C2)c(C(F)(F)F)o1	98
Cc1cc(C(=O)N2CC[C@@H](C)[C@H](c3cc(C(F)F)nc4ncnn34)C2)on1	99
Cc1cc([C@@H]2CN(C(=O)c3cc(C)sc3C)CC[C@H]2C)n2ncnc2n1	100
